- target-desc: Human FAAH (Homo sapiens, UniProt O00519)
- Construct: made in house
- Sequence (O00519 32-579 limits assumed): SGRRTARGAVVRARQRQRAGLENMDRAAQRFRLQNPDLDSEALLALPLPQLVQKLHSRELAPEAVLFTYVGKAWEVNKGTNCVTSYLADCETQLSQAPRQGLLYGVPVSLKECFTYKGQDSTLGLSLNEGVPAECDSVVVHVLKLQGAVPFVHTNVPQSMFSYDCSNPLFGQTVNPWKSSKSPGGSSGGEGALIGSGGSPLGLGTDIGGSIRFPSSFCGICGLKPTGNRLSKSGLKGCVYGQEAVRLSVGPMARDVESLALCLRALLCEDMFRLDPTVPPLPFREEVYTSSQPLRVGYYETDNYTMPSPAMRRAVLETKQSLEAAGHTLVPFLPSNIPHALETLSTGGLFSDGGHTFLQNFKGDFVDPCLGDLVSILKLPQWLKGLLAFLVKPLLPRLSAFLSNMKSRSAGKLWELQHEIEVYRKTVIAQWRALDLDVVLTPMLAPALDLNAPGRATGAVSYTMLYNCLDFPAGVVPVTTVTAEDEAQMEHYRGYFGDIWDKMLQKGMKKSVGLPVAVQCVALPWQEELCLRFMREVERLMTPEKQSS
- method-notes: FAAH assay (glutamate dehydrogenase-coupled, oleamide substrate, absorbance at 340 nm)
- Type: biochemical
- test-context: irreversible inhibition potency
result-type: hFAAH KInact/K (M⁻¹ s⁻¹)

The cases that follow already have their hFAAH KInact/K on record.
> print(dat)
                                   compound                               target.desc  measured.result
1  CC(C)Oc1cccc(C=C2CCN(C(=O)Nc3cccnn3)CC2)c1 [Example 40]  Human FAAH (Homo sapiens, UniProt O00519)             2350
2  O=C(Nc1cccnn1)N1CCC(=Cc2cccc(OCCc3ccc(F)cc3)c2)CC1 [Example 92]  Human FAAH (Homo sapiens, UniProt O00519)             5205
3  O=C(Nc1cccnn1)N1CCC(=Cc2cccc(OCCc3cnoc3)c2)CC1 [Example 60]  Human FAAH (Homo sapiens, UniProt O00519)             2190

I: CC(COc1cccc(C=C2CCN(C(=O)Nc3cccnn3)CC2)c1)CC(F)(F)F (centres unmarked) [Example 99]
II: O=C(Nc1cccnc1)N1CCC(=Cc2cccc(OC3CCC3)c2)CC1 [Example 8]
I'm curious whether I or II has the smaller hFAAH KInact/K number. Which is it? Please indicate the selected item by its label. II
